Sourced from PubChem BioAssay AID1531

Quick reference: binding response (% of control) of the listed items.
# ASSAYED_TARGET: Mitogen-activated protein kinase kinase kinase 2 (Homo sapiens) (UniProt Q9Y2U5)
# PROTOCOL_DESCRIPTION: modulators of MEK5 binding to wildtype MEKK2, primary screen, biochemical, multiplex bead flow cytometry, Alexa488-MEK5 (AID 1531)
# MEASUREMENT_CONDITIONS: Alexa488-MEK5 binding to MEKK2 WT, at 10 µM, actives lie on both sides
The whole screen tested about 290,000 compounds, of which about 3,300 (1.1%) were called active. Many of the other results were omitted from the sample, so actives are more common in it than they were.
// return numeric value only (unit: %, not printed)

Reference set, count: 3
| INPUT_SMILES | UNIT_ABBREVIATION | binding response (% of control) |
| --- | --- | --- |
| O=C(Nc1ccccc1-c1ccccc1)c1ccccc1[N+](=O)[O-] | % | 106 |
| CC(C)CNS(=O)(=O)c1ccc(C(=O)Nc2ccc3c(c2)OCO3)cc1 | % | 103 |
| COc1cc(C(=O)NCCOC(=O)c2cccc(N(C)C)c2)cc(OC)c1OC | % | 96 |

Switching to the query record.
Prompt line: Could you share what binding response (% of control) was measured for COc1ccc(Nc2ncnc3sc(C)cc23)cc1 , tested on Mitogen-activated protein kinase kinase kinase 2 (Homo sapiens) (UniProt Q9Y2U5)?
Response line: 105

====

We begin with a simple list: items and their reported binding response (% of control).
# ASSAYED_TARGET: Mitogen-activated protein kinase kinase kinase 2 (Homo sapiens)
# PROTOCOL_DESCRIPTION: modulators of MEK5 binding to wildtype MEKK2, primary screen, biochemical, multiplex bead flow cytometry, Alexa488-MEK5 (AID 1531)
# MEASUREMENT_CONDITIONS: Alexa488-MEK5 binding to MEKK2 WT, at 10 µM, actives lie on both sides
In all, about 290,000 compounds went through this assay and about 3,300 (1.1%) were called active. For the sample, actives were picked, then their nearest neighbours and some compounds at random.
Write the number in % without appending the unit.

Answered examples (3):
| COMPOUND | binding response (% of control) (%) |
| --- | --- |
| Fc1ccccc1/C=N/Nc1cc(N2CCCCC2)ncn1 | 108 |
| O=C(c1cccc([N+](=O)[O-])c1)N1CCN(C(=O)c2ccco2)CC1 | 99 |
| CCOc1cc(/C=C/c2nc3ccccc3c(=O)[nH]2)cc(Br)c1OC | 98 |

Prompt line: Please look up its binding response (% of control): O=C1C(Cc2ccc(O)cc2)NC(=S)N1Cc1ccccc1 (centres undefined)
Response line: 97

====

# ASSAYED_TARGET: Mitogen-activated protein kinase kinase kinase 2 (Homo sapiens)
# PROTOCOL_DESCRIPTION: modulators of MEK5 binding to wildtype MEKK2, primary screen, biochemical, multiplex bead flow cytometry, Alexa488-MEK5 (AID 1531)
# MEASUREMENT_CONDITIONS: Alexa488-MEK5 binding to MEKK2 WT, at 10 µM, actives lie on both sides
Among all 290,000 compounds or so, about 3,300 (1.1%) were called active. The list comes from a sample in which actives are over-represented; it also holds close analogues and randomly drawn compounds.
ENDPOINT: binding response (% of control)

| COMPOUND | binding response (% of control) |
| --- | --- |
| COc1ccc(C(C)NC(=S)NC2CCCCC2)cc1OC (stereo not drawn) | 101% (inactive) |
| O=C(c1ccco1)N1CCN(C(=S)Nc2cc(F)cc(F)c2)CC1 | 102% (inactive) |
| COc1cccc(Nc2ncccc2C(=O)O)c1 | 4% [inhibitor] (active) |
| CC(=O)[C@@]12O[C@@H]1C[C@H]1[C@@H]3CC[C@H]4C[C@@H](O)CC[C@]4(C)[C@H]3CC[C@@]12C | 107% (inactive) |
| COc1cc(NC(=O)c2cccnc2SC)cc(OC)c1 | 101% (inactive) |
| N#C[C@]1(S(=O)(=O)c2ccccc2)C[C@@H]2ON=C(c3cccc(Br)c3)[C@@H]2C1 | 91% (inactive) |
| Cc1cccc(C(=O)N2CCN(S(=O)(=O)N3CCCCC3)CC2)c1 | 108% (inactive) |

Attention now turns to another entry.
Prompt line: State the recorded binding response (% of control) for this entry: CCn1c(SCC(=O)Nc2ccc3c(c2)OCCO3)nnc1-c1ccncc1
Response line: 106% (inactive)

====

# ASSAYED_TARGET: Mitogen-activated protein kinase kinase kinase 2 (Homo sapiens) (UniProt Q9Y2U5)
# PROTOCOL_DESCRIPTION: modulators of MEK5 binding to wildtype MEKK2, primary screen, biochemical, multiplex bead flow cytometry, Alexa488-MEK5 (AID 1531)
# MEASUREMENT_CONDITIONS: Alexa488-MEK5 binding to MEKK2 WT, at 10 µM, actives lie on both sides
Hit rate of the full screen: of about 290,000 compounds, about 3,300 (1.1%) were called active. No stated cut-off is given here; in the data, active means binding response below about 67% or above about 130%; inconclusive means no clear call, values can overlap the other calls; inactive means in between. Shown is part of a subset that was picked to be rich in actives.
Form entry, call: pick from TRUE (active), FALSE (inactive)

| MOLECULE | LABEL_VALUE |
| --- | --- |
| CCOc1ccc(N/C=C/C(=O)c2ccccc2)cc1 | FALSE |

Prompt line: Field: outcome | Entry: Cc1cccc(N(C(=O)c2sc(C)nc2C)C(C(=O)NCC2CCCO2)c2ccccc2)c1 (stereo unspecified)
Response line: FALSE

Prompt line: Then this molecule: Cc1c(NC(=O)Nc2cccc([N+](=O)[O-])c2)c(=O)n(-c2ccccc2)n1C
Response line: FALSE

Prompt line: Entry to check: Cc1ccc(-n2ncc(C(=O)NC3CC3)c2C2CCN(C(=O)OC(C)(C)C)CC2)c(C)c1
Response line: FALSE

Prompt line: Ok, now COc1ccc2c(c1)c(C(=O)N/N=C/c1cccs1)c(C)n2C
Response line: FALSE

Prompt line: Field entry: O=C(Nc1nc2ccc([N+](=O)[O-])cc2s1)c1ccc(S(=O)(=O)N2CCCc3ccccc32)cc1
Response line: FALSE

Prompt line: Follow-up entry: CN(C)CCCN(C(=O)COc1ccccc1)c1nc2c(Cl)cccc2s1
Response line: TRUE

Prompt line: // same read-out, input: C[n+]1cc(-c2ccccc2)oc1-c1ccccc1
Response line: FALSE

Prompt line: Queued: COc1cccc(NC(=O)NCc2ccc(F)cc2)c1
Response line: FALSE

Prompt line: // query: Cc1cccc(NC(=O)c2cccc(C(F)(F)F)c2)c1
Response line: FALSE

Prompt line: Then this molecule: O=C(OCC1O[C@@H](OC(=O)c2cc(O)c(O)c(O)c2)[C@@H](OC(=O)c2cc(O)c(O)c(O)c2)[C@@H](OC(=O)c2cc(O)c(O)c(O)c2)[C@@H]1OC(=O)c1cc(O)c(O)c(O)c1)c1cc(O)c(O)c(O)c1 (stereo partly specified)
Response line: TRUE

====

# ASSAYED_TARGET: Mitogen-activated protein kinase kinase kinase 2 (Homo sapiens)
# PROTOCOL_DESCRIPTION: modulators of MEK5 binding to wildtype MEKK2, primary screen, biochemical, multiplex bead flow cytometry, Alexa488-MEK5 (AID 1531)
# MEASUREMENT_CONDITIONS: Alexa488-MEK5 binding to MEKK2 WT, at 10 µM, actives lie on both sides
Among all 290,000 compounds or so, about 3,300 (1.1%) were called active. The list comes from a sample in which actives are over-represented; it also holds close analogues and randomly drawn compounds.
ENDPOINT: binding response (% of control) (%)
Your answer should be a plain number; it is taken to be in %.

These solved cases illustrate the format of a correct answer.
| MOLECULE | binding response (% of control) (%) |
| --- | --- |
| NS(=O)(=O)c1cccc(NC(=O)CN2CCCc3ccccc32)c1 | 99 |
| Cc1c(CCOC(=O)c2cc([N+](=O)[O-])ccc2Cl)sc[n+]1CCCCS(=O)(=O)[O-] | 97 |
| c1ccc2c(c1)C(=NC1CCCCC1)NC2=NC1CCCCC1 | 145 |
| Cc1cccc(NC(=O)c2ccc(S(=O)(=O)N(C)CC3CCCO3)cc2)c1C (stereo unspecified) | 99 |
| O=C(NCCCN1CCOCC1)c1cc(-c2ccc(Cl)cc2)on1 | 103 |

Now for another entry.
Prompt line: # get_value(readout='binding response (% of control)', item= COC(=O)c1[nH]c2ccccc2c1NC(=O)CN1CCCc2ccccc21 )
Response line: -2

====

# ASSAYED_TARGET: Mitogen-activated protein kinase kinase kinase 2 (Homo sapiens) (UniProt Q9Y2U5)
# PROTOCOL_DESCRIPTION: modulators of MEK5 binding to wildtype MEKK2, primary screen, biochemical, multiplex bead flow cytometry, Alexa488-MEK5 (AID 1531)
# MEASUREMENT_CONDITIONS: Alexa488-MEK5 binding to MEKK2 WT, at 10 µM, actives lie on both sides
About 3,300 (1.1%) of roughly 290,000 compounds were called active. Cut-off read from the data, not from the text of the source: active = binding response below about 67% or above about 130%; inconclusive = no clear call, values can overlap the other calls; inactive = in between. For the sample, actives were picked, then their nearest neighbours and some compounds at random.
Your reply should match one of these outcome classes. active, inactive

Sample answers from the record:
| MOLECULE | LABEL_VALUE |
| --- | --- |
| COc1ccc(C=C(C#N)C#N)c(CSc2ccccn2)c1 | inactive |
| CC(C)(C)NC(=O)c1ccc(Cn2cc(C(F)(F)F)ccc2=O)cc1 | inactive |
| COC(=O)c1ccccc1NC(=O)C1CCN(C(=O)N2CCOc3ccccc32)CC1 | inactive |
| CCc1cccc(C)c1NS(=O)(=O)c1c(C)nc2sccn2c1=O | inactive |
| CCc1ccc2nc(N(CCCN(C)C)C(=O)c3ccc4c(c3)OCCO4)sc2c1 | inactive |
| CCN(C(=O)COc1ccc(C(=O)c2ccccc2)cc1)c1ccccc1 | inactive |
| Clc1cccc(N=C2NN=C(c3ccc4c(c3)OCCO4)CS2)c1 | inactive |
| O=C(CN1CCN(c2ccccn2)CC1)Nc1ccc(Br)cc1 | inactive |
| COc1ccc(-c2noc(CNC(=O)C(C)Oc3ccccc3)n2)cc1 (stereo not given) | inactive |
| CCOC(=O)c1cc(-c2nnc(-c3cc(OC)c(OC)c(OC)c3)o2)c(C)nc1C | inactive |

Could you now look at the following molecule, please?
Prompt line: State the result this test recorded for Cc1cccc(NC(=O)Nc2cccc(Oc3c(F)c(F)c(F)c(F)c3F)c2)c1 .
Response line: active
